Quick reference for Kd among some molecules
target: Recombinant Human EphA2 Fc Protein (Homo sapiens); experiment: SPR interaction analysis (Biacore T200), kinetics of peptides against EphA2; settings: Recombinant Human EphA2 Fc Protein captured by Human Antibody Capture kit; single-cycle kinetics; 25° C.; HBS-P+ buffer with 1% DMSO
Bridge positions count the residues as written; N and C are the ends. Square brackets hold non-standard residues; d marks the D form. Peptide text beside a SMILES is read from it. Trp(1-Me,7-Cl) = Cn1cc(C[C@H](N)C(=O)O)c2cccc(Cl)c21; Ala(2-NH2-4-pyridyl) = Nc1cc(C[C@H](N)C(=O)O)ccn1; dPhe(3-CONH2) = NC(=O)c1cccc(C[C@@H](N)C(=O)O)c1; Trp(1-Me) = Cn1cc(C[C@H](N)C(=O)O)c2ccccc21; NMehCit = CN[C@@H](CCCCNC(N)=O)C(=O)O; NMe3Pal = CN[C@@H](Cc1cccnc1)C(=O)O; NMeF = CN[C@@H](Cc1ccccc1)C(=O)O; hCit = NC(=O)NCCCC[C@H](N)C(=O)O; Gly(cBu) = N[C@H](C(=O)O)C1CCC1; Aad = N[C@@H](CCCC(=O)O)C(=O)O; Cba = N[C@@H](CC1CCC1)C(=O)O

Requested read-out: Kd. Entry: CC(C)C[C@@H]1NC(=O)[C@H](CC(N)=O)NC(=O)[C@H](Cc2cccnc2)N(C)C(=O)[C@@H](Cc2cccc(C(N)=O)c2)NC(=O)CSC[C@@H](C(N)=O)NC(=O)[C@H](Cc2cn(C)c3ccccc23)NC(=O)[C@H](CCCCNC(N)=O)NC(=O)[C@H](Cc2cn(C)c3c(Cl)cccc23)NC(=O)[C@H](Cc2ccccc2)N(C)C(=O)[C@H](CO)NC1=O [PDC_EphA2-00026600] ({CH2CO}-[dPhe(3-CONH2)][NMe3Pal]NLS[NMeF][Trp(1-Me,7-Cl)][hCit][Trp(1-Me)]C-NH2; thioether N-10)
0.001 to 0.01 µM

Requested read-out: Kd. Entry: C[C@H]1NC(=O)CSC[C@@H](C(=O)NCC(N)=O)NC(=O)[C@H](Cc2cn(C)c3ccccc23)NC(=O)[C@H](CCCCNC(N)=O)NC(=O)[C@H](Cc2cn(C)c3ccccc23)NC(=O)[C@H](CC(N)=O)NC(=O)[C@H]([C@@H](C)O)NC(=O)[C@H](CC2CCC2)NC(=O)[C@H](CC(N)=O)NC(=O)[C@H](Cc2ccccc2)N(C)C1=O [PDC_EphA2-00021407-L092, da-MeF-N-Cba-T-N-W1Me-Hcit-W1Me-C-G-NH2] ({CH2CO}-[dA][NMeF]N[Cba]TN[Trp(1-Me)][hCit][Trp(1-Me)]CG-NH2; thioether N-10)
0.1 to 0.4 µM

Requested read-out: Kd. Entry: C[C@@H]1SCC(=O)N[C@H](Cc2cccc(C(N)=O)c2)C(=O)N(C)[C@@H](Cc2cccnc2)C(=O)N[C@@H](CC(N)=O)C(=O)N[C@@H](C2CCC2)C(=O)N[C@@H](CCCC(N)=O)C(=O)N(C)[C@@H](CCC(=O)O)C(=O)N[C@@H](Cc2cn(C)c3c(Cl)cccc23)C(=O)N[C@@H](CCCCNC(=O)N2CCN(CC(=O)O)CC2)C(=O)N[C@@H](Cc2cn(C)c3ccccc23)C(=O)N[C@@H]1C(N)=O
0.001 to 0.01 µM

Further cases:
Requested read-out: Kd. Entry: CC(C)[C@@H]1NC(=O)[C@H](Cc2cn(C)c3ccccc23)NC(=O)[C@H](CC(N)=O)NC(=O)[C@H](CCCC(N)=O)NC(=O)[C@H](C2CCC2)NC(=O)[C@H](CC(N)=O)NC(=O)[C@H](Cc2cccnc2)N(C)C(=O)[C@@H](C)NC(=O)CSC[C@@H](C(N)=O)NC(=O)[C@H](CCCC(N)=O)NC(=O)[C@H]([C@@H](C)O)NC(=O)[C@H](Cc2cn(C)c3ccccc23)NC1=O [PDC_EphA2-00010010] ({CH2CO}-[dA][NMe3Pal]N[Gly(cBu)][Aad](NH2)N[Trp(1-Me)]V[Trp(1-Me)]T[Aad](NH2)C-NH2; thioether N-12)
< 0.001 µM

Requested read-out: Kd. Entry: CC(C)C[C@@H]1NC(=O)[C@H](CC(N)=O)NC(=O)[C@H](Cc2c[nH]cn2)NC(=O)[C@H](Cc2ccccc2)NC(=O)CSC[C@@H](C(N)=O)NC(=O)[C@H](Cc2cn(C)c3ccccc23)NC(=O)[C@H](CCCCNC(N)=O)NC(=O)[C@H](Cc2cn(C)c3ccccc23)NC(=O)[C@H](Cc2ccccc2)N(C)C(=O)[C@H](CO)NC1=O [PDC_EphA2-00022417, F-H-N-L-S-MeF-W1Me-Hcit-W1Me-C-NH2] ({CH2CO}-FHNLS[NMeF][Trp(1-Me)][hCit][Trp(1-Me)]C-NH2; thioether N-10)
0.01 to 0.1 µM

Requested read-out: Kd. Entry: CC(C)C[C@@H]1NC(=O)[C@H](Cc2ccnc(N)c2)NC(=O)[C@H](Cc2ccccc2)NC(=O)CSC[C@@H](C(N)=O)NC(=O)[C@H](Cc2cn(C)c3ccccc23)NC(=O)[C@H](Cc2ccccc2)N(C)C(=O)[C@H](Cc2cn(C)c3ccccc23)NC(=O)[C@H](CCCCNC(N)=O)N(C)C1=O [PDC_EphA2-00026481, F-4Py2NH2-L-MeHcit-W1Me-MeF-W1Me-C-NH2] ({CH2CO}-F[Ala(2-NH2-4-pyridyl)]L[NMehCit][Trp(1-Me)][NMeF][Trp(1-Me)]C-NH2; thioether N-8)
0.1 to 0.4 µM

Requested read-out: Kd. Entry: CC(=O)NCCCC[C@H](NC(=O)[C@@H]1CSCC(=O)N[C@@H](Cc2ccccc2)C(=O)N[C@@H](Cc2ccnc(N)c2)C(=O)N[C@@H](CC(C)C)C(=O)N[C@@H](CCCCNC(N)=O)C(=O)N[C@@H](Cc2cn(C)c3ccccc23)C(=O)N(C)[C@@H](Cc2ccccc2)C(=O)N[C@@H](Cc2cn(C)c3ccccc23)C(=O)N1)C(N)=O [PDC_EphA2-00022602, F-4Py2NH2-L-Hcit-W1Me-MeF-W1Me-C-KAc-NH2] ({CH2CO}-F[Ala(2-NH2-4-pyridyl)]L[hCit][Trp(1-Me)][NMeF][Trp(1-Me)]CK(Ac)-NH2; thioether N-8)
0.1 to 0.4 µM

Requested read-out: Kd. Entry: C[C@H]1SCC(=O)N[C@H](Cc2cccc(C(N)=O)c2)C(=O)N(C)[C@@H](Cc2cccnc2)C(=O)N[C@@H](CC(N)=O)C(=O)N[C@@H](C2CCC2)C(=O)N[C@@H](CCCC(N)=O)C(=O)N(C)[C@@H](CCC(=O)O)C(=O)N[C@@H](Cc2cn(C)c3c(Cl)cccc23)C(=O)N[C@@H](CCCCNC(=O)N2CCN(CC(=O)O)CC2)C(=O)N[C@@H](Cc2cn(C)c3ccccc23)C(=O)N[C@@H]1C(N)=O
< 0.001 µM
